meta.source: the Immune Epitope Database (IEDB)

So I've got a bunch of sequences here, and I need their pKd values.
Molecular target: HLA-A*29:02
Assay: IEDB peptide-MHC binding, purified MHC/direct/fluorescence; filed as Kd, often an IC50 or EC50 that approximates it; bounds were set here for any values at or beyond the usual limits of such assays
Details: source organism: Yellow fever virus
pKd: −log10 of the molar value.

Lab note: measured pKd of GSRAYRNAL was ≤ 4.70

// sample SCRVKLSAL , its pKd was ≤ 4.70

----------
Target: HLA-A*31:01
Assay: IEDB peptide-MHC binding, purified MHC/direct/fluorescence; filed as Kd, often an IC50 or EC50 that approximates it; bounds were set here for any values at or beyond the usual limits of such assays
Details: source organism: Escherichia coli O157:H7
recorded-endpoint: Kd

Kd reading for RFDEAIINY : ≥ 20 µM
